molecular target: Glucagon receptor (Mus musculus); assay: Binding affinity towards glucagon receptor determined by reduction in binding of 125 I-glucagon to the murine glucagon receptor (mGLUR) expressed on CHO cells in presence of Mg+2; format: cell-based
Sequence (Q61606 whole entry): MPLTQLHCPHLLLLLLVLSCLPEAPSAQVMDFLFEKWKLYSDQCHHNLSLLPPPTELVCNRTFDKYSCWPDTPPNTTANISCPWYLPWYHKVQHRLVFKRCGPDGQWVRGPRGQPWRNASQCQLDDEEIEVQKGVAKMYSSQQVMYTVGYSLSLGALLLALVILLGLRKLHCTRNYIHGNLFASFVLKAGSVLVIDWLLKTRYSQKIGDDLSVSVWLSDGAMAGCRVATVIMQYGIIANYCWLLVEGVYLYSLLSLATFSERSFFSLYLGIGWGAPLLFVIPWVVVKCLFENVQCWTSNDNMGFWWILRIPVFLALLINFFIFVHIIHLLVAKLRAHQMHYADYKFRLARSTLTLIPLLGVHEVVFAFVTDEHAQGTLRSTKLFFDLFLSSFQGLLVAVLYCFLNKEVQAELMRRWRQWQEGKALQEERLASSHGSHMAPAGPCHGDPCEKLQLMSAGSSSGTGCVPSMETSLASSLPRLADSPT

{"columns": ["structure.string", "experimental.target", "IC50"],
 "data": [
  ["CCOC(=O)c1cc(-c2ccc(Cl)cc2)[nH]c1-c1ccncc1", "Glucagon receptor (Mus musculus)", "> 3 µM"],
  ["Clc1ccc(-c2ccc(-c3ccncc3)[nH]2)cc1", "Glucagon receptor (Mus musculus)", "> 3 µM"],
  ["CC(C)c1cc(-c2ccc(Cl)cc2)[nH]c1-c1ccncc1", "Glucagon receptor (Mus musculus)", "> 3 µM"],
  ["CCCOc1cccc(OCCC)c1-c1cc(-c2ccc(Cl)cc2)[nH]c1-c1ccncc1", "Glucagon receptor (Mus musculus)", "> 3 µM"],
  ["Fc1ccc(-c2cc(C3CCCCC3)[nH]c2-c2ccncc2)cc1", "Glucagon receptor (Mus musculus)", "> 1 µM"],
  ["CC(C)Oc1ccccc1-c1cc(-c2ccc(Cl)cc2)[nH]c1-c1ccncc1", "Glucagon receptor (Mus musculus)", "> 1 µM"]
]}
